# Test system: MT4 cells
# Experiment Description: MTS-based toxicity assay in MT-4 T cell line
# Test Conditions: Table 1, read-out: TC50 (the source's name)
So basically: is CC50 under 20 µM? Then True. Not under? Then False.

CCc1c(C(=O)Nc2ccccc2)c(C)nc2sc(C(N)=O)c(N)c12 ... False
COc1cccc(NC(=O)c2cc(Cl)nnc2Cl)c1 ... False
CCc1c(C)nc2sc(C(N)=O)c(N)c2c1C ... False
CS(=O)(=O)c1ncc(-c2ccc(Br)cc2)cn1 ... True
COc1ccc2nc(C(F)(F)F)c(C#N)c(N)c2c1 ... False

Values from patent US7875604B2
